- measurement.description: Metabolic resistance in vitro, S9 liver fraction
- Assay type: in vitro ADME
- condition.set: 6 μg/ml, 37° C., phosphate buffer pH 7.4, S9 fraction protein content 2 mg/ml
measurement.kind: Residual product after 30 min. (%)

compound.string	Residual product after 30 min., %
CCOc1ccc(CC(=O)Nc2ccc(C(=O)NO)cc2)cc1	89.0
COc1ccc(CC(=O)Nc2ccc(C(=O)NO)cc2)cc1	90.2
COc1cccc(CCC(=O)Nc2ccc(C(=O)NO)cc2)c1	60.7
O=C(CCc1cc(C(F)(F)F)cc(C(F)(F)F)c1)Nc1ccc(C(=O)NO)cc1	68.4
O=C(Cc1ccc(C(F)(F)F)cc1)Nc1ccc(C(=O)NO)cc1	78.9

----------
Measured Cytotoxicity at 10^−6 M (percentage inhibition of the formation of formazane) of individual entries
- System: human HEP-G2 hepatoma cell line
- measurement.description: Cytotoxicity in vitro on HEP-G2 cells (formazane colorimetric assay)
- Assay type: cell-based
- condition.set: 48 h
Numeric answer only, unit % assumed.

Worked cases, answers included:
compound	assay.target	test.result
O=C(Cc1ccc(C(F)(F)F)cc1)Nc1ccc(C(=O)NO)cc1 [Ex. 01]	human HEP-G2 hepatoma cell line	3.8
O=C(Cc1ccc([N+](=O)[O-])cc1)Nc1ccc(C(=O)NO)cc1 [Ex. 15]	human HEP-G2 hepatoma cell line	0
O=C(CCc1cc(C(F)(F)F)cc(C(F)(F)F)c1)Nc1ccc(C(=O)NO)cc1 [Ex. 06]	human HEP-G2 hepatoma cell line	13
COc1cccc(CCC(=O)Nc2ccc(C(=O)NO)cc2)c1 [Ex. 03]	human HEP-G2 hepatoma cell line	7.3

Using the record for COc1ccc(CC(=O)Nc2ccc(C(=O)NO)cc2)cc1 [Ex. 04] , report its Cytotoxicity at 10^−6 M (percentage inhibition of the formation of formazane). 0

Likewise for CCOc1ccc(CC(=O)Nc2ccc(C(=O)NO)cc2)cc1 [Ex. 05] ? 0

----------
Consider the following IC50 values measured on mouse HDAC-1 enzyme (Mus musculus, UniProt O09106).
Sequence (O09106 whole entry): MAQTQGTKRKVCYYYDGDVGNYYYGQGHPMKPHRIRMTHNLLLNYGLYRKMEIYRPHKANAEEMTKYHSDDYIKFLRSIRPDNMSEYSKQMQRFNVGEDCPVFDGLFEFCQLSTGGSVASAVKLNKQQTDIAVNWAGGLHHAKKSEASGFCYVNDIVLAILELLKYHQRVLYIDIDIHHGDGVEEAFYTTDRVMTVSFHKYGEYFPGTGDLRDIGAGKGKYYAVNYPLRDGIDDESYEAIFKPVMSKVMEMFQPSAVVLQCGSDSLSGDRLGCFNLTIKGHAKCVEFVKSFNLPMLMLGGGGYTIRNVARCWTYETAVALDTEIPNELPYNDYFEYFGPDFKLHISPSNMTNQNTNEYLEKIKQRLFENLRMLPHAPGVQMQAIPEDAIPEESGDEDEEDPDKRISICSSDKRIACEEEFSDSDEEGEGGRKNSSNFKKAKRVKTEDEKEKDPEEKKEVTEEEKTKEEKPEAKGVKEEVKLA
measurement.kind: IC50 (nM)

Worked cases, answers included:
compound.string	assay.target	IC50, nM
COc1ccc(CC(=O)Nc2ccc(C(=O)NO)cc2)cc1	mouse HDAC-1 enzyme (Mus musculus, UniProt O09106)	113
O=C(Cc1ccc(C(F)(F)F)cc1)Nc1ccc(C(=O)NO)cc1	mouse HDAC-1 enzyme (Mus musculus, UniProt O09106)	142
O=C(Cc1ccccc1OCc1ccccc1)Nc1ccc(C(=O)NO)cc1	mouse HDAC-1 enzyme (Mus musculus, UniProt O09106)	112

[1] O=C(CCc1cc(C(F)(F)F)cc(C(F)(F)F)c1)Nc1ccc(C(=O)NO)cc1
[2] CCOc1ccc(CC(=O)Nc2ccc(C(=O)NO)cc2)cc1
Which has the smaller recorded IC50, 1 or 2 ? Please respond with the label that marks your chosen entry. 1
